- Test system: M. bovis BCG
- procedure_summary: microbe, parasite or virus in culture
- Format: cell-based
- condition: Mycobacterium tuberculosis variant bovis BCG

{"molecule": "CCCCNC(=O)c1cc([N+](=O)[O-])cc([N+](=O)[O-])c1 [Compound 7a, N-butyl-3.5-dinitrobenzamide]", "MBC [mg/L]": 1}
{"molecule": "CCCCCCCCCCCCCCNC(=O)c1cc([N+](=O)[O-])cc([N+](=O)[O-])c1 [Compound 7f, N-tetradecyl-3.5-dinitrobenzamide]", "MBC [mg/L]": 0.25}
{"molecule": "CCCCCCCCNC(=O)c1cc([N+](=O)[O-])cc([N+](=O)[O-])c1 [Compound 7c, N-octyl-3.5-dinitrobenzamide]", "MBC [mg/L]": 0.015}
{"molecule": "CCCCCCNC(=O)c1cc([N+](=O)[O-])cc([N+](=O)[O-])c1 [Compound 7b, N-hexyl-3.5-dinitrobenzamide]", "MBC [mg/L]": 0.25}

###

- Tested on: Mycobacterium tuberculosis H37Rv
- procedure_summary: MIC and MBC by broth microdilution against M. tuberculosis H37Rv
- Format: cell-based, Mycobacterium tuberculosis H37Rv (ATCC 27294)
- condition: Mycobacterium tuberculosis, H37RV, M. tuberculosis H37Rv; Table 3; read-out: MBC
# maps each entry to its MBC
parameter: MBC (µg/mL)

{"compound": "CCCCCCCCCCCCOC(=O)c1ccccc1 [Compound 1e, Dodecyl benzoate]", "units": "µg/mL", "reported_result": 512}
{"compound": "CCCCCCCCCCCCNC(=O)c1ccc([N+](=O)[O-])cc1 [Compound 6e, N-dodecyl-4-nitrobenzamide]", "units": "µg/mL", "reported_result": 256}
{"compound": "CCCCCCCCNC(=O)c1ccc([N+](=O)[O-])cc1 [Compound 6c, N-octyl-4-nitrobenzamide]", "units": "µg/mL", "reported_result": 256}

###

half-life listing for selected compounds.
- procedure_summary: Stability in Mycobacterium smegmatis homogenate (enzymatic hydrolysis)
- condition: Mycobacterium smegmatis, pH 7.4

{"compound": "CCCCOC(=O)c1cc([N+](=O)[O-])cc(C(F)(F)F)c1", "half-life, h": 5.36}
{"compound": "CCCCOC(=O)c1ccccc1 [Compound 1a, Butyl benzoate]", "half-life, h": 0.2}
{"compound": "CCCCNC(=O)c1cc([N+](=O)[O-])cc(C(F)(F)F)c1", "half-life, h": 63.8}
{"compound": "CCCCCCNC(=O)c1ccc([N+](=O)[O-])cc1 [Compound 6b, N-hexyl-4-nitrobenzamide]", "half-life, h": 87.2}
{"compound": "CCCCCCOC(=O)c1ccccc1 [Compound 1b, Hexyl benzoate]", "half-life, h": 0.21}
{"compound": "CCCCNC(=O)c1ccc([N+](=O)[O-])cc1 [Compound 6a, N-butyl-4-nitrobenzamide]", "half-life, h": 76.5}
{"compound": "CCCCCCCCCCCCOC(=O)c1ccccc1 [Compound 1e, Dodecyl benzoate]", "half-life, h": 91.4}
{"compound": "CCCCCCCCOC(=O)c1ccc([N+](=O)[O-])cc1 [Compound 2c, Octyl 4-nitrobenzoate]", "half-life, h": 39}
{"compound": "CCCCCCOC(=O)c1cc([N+](=O)[O-])cc(C(F)(F)F)c1", "half-life, h": 105}

###

- procedure_summary: Stability in human plasma (enzymatic hydrolysis)
- condition: 48h
parameter: Degradation (%) 48h

{"compound": "CCCCCCCCOC(=O)c1ccccc1 [Compound 1c, Octyl benzoate]", "units": "%", "reported_result": 71}
{"compound": "CCCCCCCCCCOC(=O)c1cc([N+](=O)[O-])cc([N+](=O)[O-])c1 [Compound 3d, Decyl 3,5-dinitrobenzoate]", "units": "%", "reported_result": 32}
{"compound": "CCCCCCCCCCCCNC(=O)c1cc([N+](=O)[O-])cc([N+](=O)[O-])c1 [Compound 7e, N-dodecyl-3.5-dinitrobenzamide]", "units": "%", "reported_result": 0}
{"compound": "CCCCNC(=O)c1cc([N+](=O)[O-])cc([N+](=O)[O-])c1 [Compound 7a, N-butyl-3.5-dinitrobenzamide]", "units": "%", "reported_result": 0}
{"compound": "CCCCCCCCCCCCOC(=O)c1cc([N+](=O)[O-])cc([N+](=O)[O-])c1", "units": "%", "reported_result": 50}
{"compound": "CCCCCCCCCCCCCCCCOC(=O)c1cc([N+](=O)[O-])cc([N+](=O)[O-])c1 [Compound 3g, Hexadecyl 3,5-dinitrobenzoate]", "units": "%", "reported_result": 3}
{"compound": "CCCCNC(=O)c1ccc([N+](=O)[O-])cc1 [Compound 6a, N-butyl-4-nitrobenzamide]", "units": "%", "reported_result": 23}
